Hello, the source for this data is the supplement of paper PMC10598134, in case you need it.

Items are presented alongside their recorded collision cross section.
# assay_details: collision cross section of modified peptide (TIMS, N2, iRT-aligned); higher = larger / more extended gas-phase ion
# experimental_conditions: charge state: 3; modification: Dimethyl (K)
reported_endpoint: collision cross section (Å²)

[[record]]
sequence_chain = "LDHLAEKFR [_LDHLAEK(Dimethyl (K))FR_]"
measurement_unit = "Å²"
reported_measurement = 433.76

[[record]]
sequence_chain = "VLDSGAPIKIPVGPETLGR [_VLDSGAPIK(Dimethyl (K))IPVGPETLGR_]"
measurement_unit = "Å²"
reported_measurement = 506.24

[[record]]
sequence_chain = "IVEKYGYTHLSAGELLR [_IVEK(Dimethyl (K))YGYTHLSAGELLR_]"
measurement_unit = "Å²"
reported_measurement = 550.8

[[record]]
sequence_chain = "TEVLSPNSKVESK [_TEVLSPNSK(Dimethyl (K))VESK_]"
measurement_unit = "Å²"
reported_measurement = 477.45

[[record]]
sequence_chain = "IDLPAENSNSETIIITGKR [_IDLPAENSNSETIIITGK(Dimethyl (K))R_]"
measurement_unit = "Å²"
reported_measurement = 568.21

[[record]]
sequence_chain = "TQAYQDQKPGTSGLR [_TQAYQDQK(Dimethyl (K))PGTSGLR_]"
measurement_unit = "Å²"
reported_measurement = 464.17

[[record]]
sequence_chain = "LTEKELAEAASK [_LTEK(Dimethyl (K))ELAEAASK_]"
measurement_unit = "Å²"
reported_measurement = 456.37

[[record]]
sequence_chain = "KYEEIDNAPEER [_K(Dimethyl (K))YEEIDNAPEER_]"
measurement_unit = "Å²"
reported_measurement = 484.37

[[record]]
sequence_chain = "STGLELETPSLVPVKK [_STGLELETPSLVPVK(Dimethyl (K))K_]"
measurement_unit = "Å²"
reported_measurement = 515.08

[[record]]
sequence_chain = "GTVPDDAVEALADSLGKK [_GTVPDDAVEALADSLGK(Dimethyl (K))K_]"
measurement_unit = "Å²"
reported_measurement = 525.76

[[record]]
sequence_chain = "VDVEVPDVSLEGPEGKLK [_VDVEVPDVSLEGPEGK(Dimethyl (K))LK_]"
measurement_unit = "Å²"
reported_measurement = 548.43

[[record]]
sequence_chain = "SKHLQEQLNELK [_SK(Dimethyl (K))HLQEQLNELK_]"
measurement_unit = "Å²"
reported_measurement = 492.51

[[record]]
sequence_chain = "VSPASSVDSNIPSSQGYKK [_VSPASSVDSNIPSSQGYK(Dimethyl (K))K_]"
measurement_unit = "Å²"
reported_measurement = 536.37

[[record]]
sequence_chain = "YEQEHAAIQDKLFQVAK [_YEQEHAAIQDK(Dimethyl (K))LFQVAK_]"
measurement_unit = "Å²"
reported_measurement = 556.37

[[record]]
sequence_chain = "IQQELQTAKK [_IQQELQTAK(Dimethyl (K))K_]"
measurement_unit = "Å²"
reported_measurement = 426.86

[[record]]
sequence_chain = "VETTVTSLKTK [_VETTVTSLK(Dimethyl (K))TK_]"
measurement_unit = "Å²"
reported_measurement = 450.04

[[record]]
sequence_chain = "AGPNASIISLKSDK [_AGPNASIISLK(Dimethyl (K))SDK_]"
measurement_unit = "Å²"
reported_measurement = 484.65

[[record]]
sequence_chain = "GFALVGVGSEASSKK [_GFALVGVGSEASSK(Dimethyl (K))K_]"
measurement_unit = "Å²"
reported_measurement = 485.09

[[record]]
sequence_chain = "VGEFSGANKEK [_VGEFSGANK(Dimethyl (K))EK_]"
measurement_unit = "Å²"
reported_measurement = 440.62

[[record]]
sequence_chain = "IVFSGNLFQHQEDSKK [_IVFSGNLFQHQEDSK(Dimethyl (K))K_]"
measurement_unit = "Å²"
reported_measurement = 532.16

[[record]]
sequence_chain = "LQAAYAGDKADDIQK [_LQAAYAGDK(Dimethyl (K))ADDIQK_]"
measurement_unit = "Å²"
reported_measurement = 470.88

